- TARGET ENTITY: T1, human GPC3 on cells (human, UniProt P51654 25-554)
- T1 construct: whole, on cells; over-expressed on CHOK1 cells or endogenous on HEPG2, Hep3B and Huh-7 hepatocellular carcinoma cells; the cell line is named under assay; also called GPC3-CHOK1 cells; human GPC3 over-expressed CHOK1 cells
- MEASUREMENT DESCRIPTION: FACS, GPC3-CHOK1 cells
QUANTITY: EC50 (µg/mL)

INSERT INTO results (binder, quantity, observed_measurement) VALUES
  ('52H5D3B8-6# chimeric mAb (antibody, V domains shown, CDR3 mutant of the 52H5D3B8 chimeric mAb (human IgG1); also called 52H5D3B8-6#-VH+VL) VH: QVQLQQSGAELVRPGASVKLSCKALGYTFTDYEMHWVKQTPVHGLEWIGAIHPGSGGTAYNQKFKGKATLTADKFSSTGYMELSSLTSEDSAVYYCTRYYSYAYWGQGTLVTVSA VL: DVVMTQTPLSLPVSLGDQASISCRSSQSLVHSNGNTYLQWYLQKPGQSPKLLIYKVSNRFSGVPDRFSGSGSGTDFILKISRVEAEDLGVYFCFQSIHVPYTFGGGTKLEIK', 'EC50', 0.0389);
